Test system: L. donovani HU3 strain in mouse peritoneal macrophages
Experiment: Assay for proliferation of Leishmania parasites in mouse peritoneal macrophages
Format: cell-based, Leishmania donovani
Conditions: Leishmania donovani, Peritoneal macrophage, read-out: L. donavani Macrophage EC50
Excerpt: Assay for Proliferation of Leishmania Parasites The activity of a compound according to the present invention for inhibition of parasitemai can be assessed by the parasite proliferation assay. The assay measures the increase in the parasite number in the assayed plate well using a DNA intercalating dye, SYBR Green I® dye (INVITROGEN) to stain Leishmania cell nuclei. It is understood that the assays illustrate the invention without in any way limiting the scope of the invention. […]
quantityName: EC50 (µM)

{"molecule": "Cc1ccc(C(=O)Nc2ccc(F)c(-c3nc4ncc(-c5ccccc5)cc4[nH]3)c2)o1 [Example 380]", "testTarget": "L. donovani HU3 strain in mouse peritoneal macrophages", "comparativeSign": "=", "measuredResult": 3.3}
{"molecule": "Cc1cnc2nc(-c3cc(NC(=O)NCCN(C)C)ccc3Cl)[nH]c2c1 [Example 226]", "testTarget": "L. donovani HU3 strain in mouse peritoneal macrophages", "comparativeSign": ">", "measuredResult": 50}
{"molecule": "CCN(C)C(=O)Nc1ccc(Cl)c(-c2nc3ncc(C)cc3[nH]2)c1 [Compound 242]", "testTarget": "L. donovani HU3 strain in mouse peritoneal macrophages", "comparativeSign": "=", "measuredResult": 25.5}
{"molecule": "Cc1cnc2nc(-c3cc(NC(=O)c4ccncc4)ccc3Cl)[nH]c2c1 [Compound 212]", "testTarget": "L. donovani HU3 strain in mouse peritoneal macrophages", "comparativeSign": "=", "measuredResult": 22.5}
